Reported GI50 values for a set of compounds
System: SK-MEL-2
Assay: NCI tumour cell line growth inhibition, 48 h
The source made the active and inactive calls. Rule as the data show it: active = GI50 up to about 1.1 µM and inactive = higher.

A selection of reference data follows.
| compound | reported_endpoint | experimental_value |
| --- | --- | --- |
| O=C1NC2(C=Cc3c(ccc4ccccc34)O2)Oc2ccccc21 (stereo unspecified) | GI50 | 13.2 µM (inactive) |
| COc1ccc(C2C(C#N)=C(S)N(C3OC(CO)C(O)C(O)C3O)C(C)=C2C(C)=O)cc1 (stereo unspecified) | GI50 | > 100 µM (inactive) |
| C#CCCCC(=C)C[C@@H]1OC(=O)[C@H](C)[C@@H]1O | GI50 | > 100 µM (inactive) |
| Clc1cc2n[se]nc2cc1Cl | GI50 | > 100 µM (inactive) |
| COC(=O)/C1=C/c2c([nH]c3ccccc23)/C(C(=O)OC)=C\c2c1[nH]c1ccccc21 | GI50 | 14.4 µM (inactive) |
| CC1(C)N=C(C2CCCN2C(=O)OCc2ccccc2)OC1=O (stereo unspecified) | GI50 | > 100 µM (inactive) |
| CN(c1nc(=[N+](C)C)ss1)C1CCCCC1 | GI50 | > 100 µM (inactive) |
| O=C(NCCCNC(=O)c1ccc2cc(O)c(O)cc2c1)c1ccc2cc(O)c(O)cc2c1 | GI50 | 13.1 µM (inactive) |

### Prompt # get_value(readout='GI50', item= CN1C(=O)NC2(O)c3ccccc3C(=O)C12O (stereo unspecified) )
### Response > 100 µM (inactive)

### Prompt # get_value(readout='GI50', item= `CC(=S)N/C=C1/C(=O)C=C(C)OC1=O` )
### Response > 100 µM (inactive)

### Prompt # get_value(readout='GI50', item= `O=C1CCC(=O)N1CNc1cccc(NCN2C(=O)CCC2=O)c1` )
### Response > 100 µM (inactive)
